System: CEM-SS
Experiment: Cytotoxic concentration is tested against CEM-SS cells
Type: functional
Conditions: Homo sapiens
READOUT LABEL: CC50 (nM)
Answer with a number only, understood to be in nM.

1) CO[C@H]1[C@H](O)[C@@H](O)[C@H](n2c3c(Cl)cccc3c3c4c(c5c6cccc(Cl)c6[nH]c5c32)C(=O)N(C)C4)O[C@@H]1CO.CO[C@H]1[C@H](O)[C@@H](O)[C@H](n2c3c(Cl)cccc3c3c4c(c5c6cccc(Cl)c6[nH]c5c32)CN(C)C4=O)O[C@@H]1CO; 1720

As a next step, examine the compound that follows.
Item: "CO[C@H]1[C@H](O)[C@@H](O)[C@H](n2c3ccccc3c3c4c(c5c6ccccc6[nH]c5c32)C(=O)NC4=O)O[C@@H]1CO" | CC50: 900

----------
Target: Protein kinase C (PKC)
Assay: Inhibition of Protein kinase C
Format: protein assay
READOUT LABEL: IC50

Solved cases below.
1. CO[C@H]1[C@H](O)[C@@H](O)[C@H](n2c3ccccc3c3c4c(c5c6ccccc6[nH]c5c32)C(=O)N(C)C4=O)O[C@@H]1CO; > 100 µM
2. CO[C@H]1[C@H](O)[C@@H](O)[C@H](n2c3ccccc3c3c4c(c5c6ccccc6[nH]c5c32)C(=O)NC4)O[C@@H]1CO.CO[C@H]1[C@H](O)[C@@H](O)[C@H](n2c3ccccc3c3c4c(c5c6ccccc6[nH]c5c32)CNC4=O)O[C@@H]1CO; 3.7 µM

Given item "CO[C@H]1[C@H](O)[C@@H](O)[C@H](n2c3c(Cl)cccc3c3c4c(c5c6cccc(Cl)c6[nH]c5c32)C(=O)NC4)O[C@@H]1CO.CO[C@H]1[C@H](O)[C@@H](O)[C@H](n2c3c(Cl)cccc3c3c4c(c5c6cccc(Cl)c6[nH]c5c32)CNC4=O)O[C@@H]1CO" , the value recorded as its IC50 is 28.8 µM

Recorded IC50 (compound CO[C@H]1[C@H](O)[C@@H](O)[C@H](n2c3c(Cl)cccc3c3c4c(c5c6cccc(Cl)c6[nH]c5c32)C(=O)N(C)C4=O)O[C@@H]1CO (stereo in doubt; A) ): > 100 µM

----------
System: CEM-SS
Experiment: Cytotoxic concentration is tested against CEM-SS cells
Format: functional
Settings: Homo sapiens
In this section, each of the compounds is paired with its reported CC50.

# example entries with known answers
1. CO[C@H]1[C@H](O)[C@@H](O)[C@H](n2c3ccccc3c3c4c(c5c6ccccc6[nH]c5c32)C(=O)OC4=O)O[C@@H]1CO; > 1.98 µM
2. CO[C@H]1[C@H](O)[C@@H](O)[C@H](n2c3ccccc3c3c4c(c5c6ccccc6n(C)c5c32)C(=O)N(C)C4=O)O[C@@H]1CO; > 19 µM

Let's switch to this compound now.
What the record says about "CO[C@H]1[C@H](O)[C@@H](O)[C@H](n2c3ccccc3c3c4c(c5c6ccccc6n(C)c5c32)C(=O)OC4=O)O[C@@H]1CO" : CC50 is > 9.7 µM

----------
System: P388
Test: Antiproliferative activity measured against P388 Leukemia cells
Type: functional, cell-based, Mus musculus
Conditions: Mus musculus, P388
pIC50: −log10 of the molar value.
Listed next: entries and their corresponding pIC50.

Use the examples below as a reference point.
1. CO[C@H]1[C@H](O)[C@@H](O)[C@H](n2c3c(Cl)cccc3c3c4c(c5c6cccc(Cl)c6[nH]c5c32)C(=O)NC4)O[C@@H]1CO.CO[C@H]1[C@H](O)[C@@H](O)[C@H](n2c3c(Cl)cccc3c3c4c(c5c6cccc(Cl)c6[nH]c5c32)CNC4=O)O[C@@H]1CO; < 3.90
2. CO[C@H]1[C@H](O)[C@@H](O)[C@H](n2c3ccccc3c3c4c(c5c6ccccc6n(C)c5c32)C(=O)OC4=O)O[C@@H]1CO; < 4.72

Please find the next compound below.
Considering "CO[C@H]1[C@H](O)[C@@H](O)[C@H](n2c3ccccc3c3c4c(c5c6ccccc6n(C)c5c32)C(=O)N(C)C4=O)O[C@@H]1CO" , its pIC50 with P388 was recorded as < 4.72
